Provenance of the data: patent US9546152B2

- EXPERIMENTAL TARGET: human orexin-2 receptor (Homo sapiens (Human), UniProt O43614)
- Sequence (O43614 whole entry): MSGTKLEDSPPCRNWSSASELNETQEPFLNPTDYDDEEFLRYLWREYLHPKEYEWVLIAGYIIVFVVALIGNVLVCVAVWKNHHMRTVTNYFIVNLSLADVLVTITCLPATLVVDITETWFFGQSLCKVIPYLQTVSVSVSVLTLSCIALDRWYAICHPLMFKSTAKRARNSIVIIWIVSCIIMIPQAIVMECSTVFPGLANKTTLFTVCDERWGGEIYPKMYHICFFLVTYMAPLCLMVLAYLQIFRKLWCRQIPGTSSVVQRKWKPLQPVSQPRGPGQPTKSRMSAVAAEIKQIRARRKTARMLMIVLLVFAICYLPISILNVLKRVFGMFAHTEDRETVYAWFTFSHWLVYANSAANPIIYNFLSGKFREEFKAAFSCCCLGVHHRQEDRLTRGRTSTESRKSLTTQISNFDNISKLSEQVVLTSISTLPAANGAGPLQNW
- TEST DETAILS: FLIPR Ca2+ Flux Assay, orexin-2 receptor
- Format: cell-based
- CONDITION NOTES: CHO cells expressing the human orexin-2 receptor; agonist 70 pM Ala-6,12 human orexin-A; read-out: hOX2R FLIPR IC50
Please go through the items and note down their pIC50.
Give bare numbers, as −log10 of the molar value.

# CHEMICAL STRUCTURE, EXPERIMENTAL TARGET, pIC50
records = [
    ("COc1ccc(C(=O)N2C[C@H](Oc3nccc(C#N)c3C)CC[C@H]2C)c(C2CCC2)n1", "human orexin-2 receptor (Homo sapiens (Human), UniProt O43614)", 7.11),
    ("COc1ccc(C(=O)N2C[C@H](Oc3nccc(C#N)c3OC)CC[C@H]2C)c(-c2ncccn2)n1", "human orexin-2 receptor (Homo sapiens (Human), UniProt O43614)", 6.97),
    ("Cc1cnn(-c2ccccc2C(=O)N2C[C@H](Oc3nccc(C#N)c3C)CC[C@H]2C)c1", "human orexin-2 receptor (Homo sapiens (Human), UniProt O43614)", 8.00),
]

Please turn your attention to the following entry.
Lab entry: human orexin-2 receptor (Homo sapiens (Human), UniProt O43614) assay, compound Cc1ccc(C(=O)N2C[C@H](Oc3nccc(C#N)c3C)CC[C@H]2C)c(-n2nccn2)c1 , pIC50 = 7.96
